- targetUnderTest: URAT-1 transporter (Homo sapiens (Human), UniProt Q96S37)
- Sequence (Q96S37 other isoform, or with tags, fused parts or gaps): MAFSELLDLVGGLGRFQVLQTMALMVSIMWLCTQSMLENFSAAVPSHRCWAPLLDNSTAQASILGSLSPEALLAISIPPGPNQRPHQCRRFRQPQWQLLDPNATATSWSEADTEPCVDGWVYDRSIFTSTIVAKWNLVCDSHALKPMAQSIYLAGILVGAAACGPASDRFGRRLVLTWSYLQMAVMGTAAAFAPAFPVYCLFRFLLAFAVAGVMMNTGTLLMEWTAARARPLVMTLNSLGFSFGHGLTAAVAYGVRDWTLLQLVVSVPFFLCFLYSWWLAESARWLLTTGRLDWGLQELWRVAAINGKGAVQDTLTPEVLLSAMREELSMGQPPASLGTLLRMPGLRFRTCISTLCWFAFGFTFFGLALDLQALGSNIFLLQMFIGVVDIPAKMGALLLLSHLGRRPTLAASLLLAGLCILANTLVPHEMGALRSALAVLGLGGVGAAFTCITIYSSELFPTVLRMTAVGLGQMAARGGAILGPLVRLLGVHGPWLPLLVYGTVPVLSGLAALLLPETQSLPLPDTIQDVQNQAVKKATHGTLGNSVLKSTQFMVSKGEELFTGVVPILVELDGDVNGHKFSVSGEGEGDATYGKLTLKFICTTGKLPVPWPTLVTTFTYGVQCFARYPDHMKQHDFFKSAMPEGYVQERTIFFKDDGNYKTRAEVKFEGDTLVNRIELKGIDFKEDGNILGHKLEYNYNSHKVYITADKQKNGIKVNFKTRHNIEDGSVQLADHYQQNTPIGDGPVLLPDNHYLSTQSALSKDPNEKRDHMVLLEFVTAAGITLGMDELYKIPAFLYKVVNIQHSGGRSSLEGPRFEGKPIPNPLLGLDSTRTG
- experiment: URAT-1 inhibitor activity: [14C]-uric acid uptake in CHO-URAT1(L)GFP#8 (CHO#8) cells, scintillation proximity
- Format: cell-based
- testParameters: inhibition of [14C]-uric acid (30 nM) uptake into CHO#8 cells; compound 0 to 10 μM; 4 parameter logistic fit
readout: pIC50
Give only the number. pIC50 is defined as minus log10 of concentration in molar units.

mol	recordedResult
Cc1ccc(F)c(Oc2ccc(S(=O)(=O)Nc3ccc(F)cn3)cc2C#N)c1Cl	7.01
N#Cc1cc(S(=O)(=O)Nc2ccc(F)cn2)ccc1Oc1cccc(Cl)c1	7.07

As a next step, examine the compound that follows.
*Q* Notebook: pull reported pIC50 for URAT-1 transporter (Homo sapiens (Human), UniProt Q96S37), entry Cc1ccc(F)cc1Oc1ccc(S(=O)(=O)Nc2ccc(F)cn2)cc1C#N
*A* 7.08
